// reported Kd for each item listed
# Measured target: T1, 15N-PEX14(16–80W) (human, UniProt O75381 16-80, 15N-labelled)
# T1 chain: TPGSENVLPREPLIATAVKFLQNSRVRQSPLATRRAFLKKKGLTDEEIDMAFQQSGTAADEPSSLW
# Run description: NMR titration

MNDLVSEYQQYQDAT [LVSEY peptide] : ~5 µM

Suppose we examine the binder RKAFLHWYTGEGMDE [FLHWY peptide] ; what Kd value has been reported?
~282 µM
